- testedTarget: Phosphatidylinositol 4,5-bisphosphate 3-kinase catalytic subunit alpha isoform (Homo sapiens)
- Sequence (P42336 whole entry, canonical isoform): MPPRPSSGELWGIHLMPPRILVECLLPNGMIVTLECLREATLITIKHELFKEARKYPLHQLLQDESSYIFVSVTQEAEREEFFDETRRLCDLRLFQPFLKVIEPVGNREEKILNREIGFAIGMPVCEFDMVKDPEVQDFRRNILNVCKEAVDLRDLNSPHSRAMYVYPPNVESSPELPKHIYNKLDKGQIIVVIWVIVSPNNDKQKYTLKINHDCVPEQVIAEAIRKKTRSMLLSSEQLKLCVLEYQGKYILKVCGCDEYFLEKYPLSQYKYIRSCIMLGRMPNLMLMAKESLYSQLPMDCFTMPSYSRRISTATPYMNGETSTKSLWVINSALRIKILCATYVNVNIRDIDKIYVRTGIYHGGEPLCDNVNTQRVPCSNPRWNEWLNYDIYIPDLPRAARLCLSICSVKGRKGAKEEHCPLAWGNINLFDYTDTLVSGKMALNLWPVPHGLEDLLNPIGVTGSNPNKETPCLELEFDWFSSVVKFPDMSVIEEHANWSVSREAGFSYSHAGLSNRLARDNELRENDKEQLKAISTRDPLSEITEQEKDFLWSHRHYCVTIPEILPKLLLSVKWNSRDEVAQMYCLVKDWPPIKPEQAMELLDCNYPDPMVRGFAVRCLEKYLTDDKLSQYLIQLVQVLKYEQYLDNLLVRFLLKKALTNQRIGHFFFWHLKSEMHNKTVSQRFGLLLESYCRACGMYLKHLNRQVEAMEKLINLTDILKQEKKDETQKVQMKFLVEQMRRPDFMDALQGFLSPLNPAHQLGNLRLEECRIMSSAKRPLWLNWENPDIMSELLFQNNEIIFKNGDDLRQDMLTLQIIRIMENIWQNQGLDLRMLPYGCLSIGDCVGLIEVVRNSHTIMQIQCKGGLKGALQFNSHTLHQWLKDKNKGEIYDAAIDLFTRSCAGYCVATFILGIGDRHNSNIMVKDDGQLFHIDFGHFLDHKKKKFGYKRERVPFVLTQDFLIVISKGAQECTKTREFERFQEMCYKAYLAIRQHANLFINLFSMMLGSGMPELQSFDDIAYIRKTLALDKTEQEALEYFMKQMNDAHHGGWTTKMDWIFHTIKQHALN
- protocolDescription: Inhibition of PI3Kalpha (unknown origin) using PIP2 as substrate preincubated for 1 hr followed by substrate addition and measured after 60 mins in presence of ATP by ADP-glo assay
assayReadout: pIC50
pIC50 here is simply -log10 of the concentration when that concentration is written in mol/L.

Exercise: Need pIC50, item "Cc1cc(-c2ccn3nc(N)c(C(=O)N[C@H]4CC[C@](C)(O)CC4)c3n2)cc2c1C(=O)N([C@@H](C)C1CC1)C2"
Solution: 6.62

Exercise: Need pIC50, item "Cc1cc(-c2ccn3nc(N)c(C(=O)NC4COC4)c3n2)cc2c1C(=O)N([C@@H](C)C1CC1)C2"
Solution: 6.08

Exercise: Need pIC50, item "Cc1cc(-c2ccn3nc(N)c(C(=O)N[C@H]4CNC(=O)C4)c3n2)cc2c1C(=O)N([C@@H](C)C1CC1)C2"
Solution: 6.00

Exercise: Need pIC50, item "C[C@@H](C1CC1)N1Cc2cc(-c3ccn4nc(N)c(C(=O)NC5CC5)c4n3)cc(S(=O)(=O)C3CC3)c2C1=O"
Solution: 6.42

Exercise: Need pIC50, item "C[C@@H](C1CC1)N1Cc2cc(-c3ccn4nc(N)c(C(=O)NC5CC5)c4n3)cc(S(=O)(=O)C3CCC3)c2C1=O"
Solution: 6.29

Exercise: Need pIC50, item "COc1cc(-c2ccn3nc(N)c(C(=O)NC4CC4)c3n2)cc2c1C(=O)N([C@@H](C)C1CC1)C2"
Solution: 6.55

Exercise: Need pIC50, item "Cc1cc(-c2ccn3nc(N)c(C(=O)N[C@H]4CC[C@H](C(=O)O)CC4)c3n2)cc2c1C(=O)N([C@@H](C)C1CC1)C2"
Solution: 7.54

Exercise: Need pIC50, item "C[C@@H](C1CC1)N1Cc2cc(-c3ccn4nc(N)c(C(=O)N[C@H]5CC[C@@](C)(O)CC5)c4n3)cc(OC(F)F)c2C1=O"
Solution: 5.90

Exercise: Need pIC50, item "C[C@@H](C1CC1)N1Cc2cc(-c3ccn4nc(N)c(C(=O)N[C@@H](CO)C5CC5)c4n3)cc(OC(F)(F)F)c2C1=O"
Solution: 5.69

Exercise: Need pIC50, item "C[C@@H](C1CC1)N1Cc2cc(-c3ccn4nc(N)c(C(=O)NC5CC5)c4n3)cc(C3CC3)c2C1=O"
Solution: 6.24

Exercise: Need pIC50, item "CCS(=O)(=O)c1cc(-c2ccn3nc(N)c(C(=O)NC4CC4)c3n2)cc2c1C(=O)N([C@@H](C)C1CC1)C2"
Solution: 6.09

Exercise: Need pIC50, item "C[C@@H](C1CC1)N1Cc2cc(-c3ccn4nc(N)c(C(=O)NC5CC5)c4n3)cc(S(C)(=O)=O)c2C1=O"
Solution: 6.45

Exercise: Need pIC50, item "Cc1cc(-c2ccn3nc(N)c(C(=O)NC4CC4)c3n2)cc2c1C(=O)N([C@@H](C)C1CC1)C2"
Solution: 5.48

Exercise: Need pIC50, item "C[C@@H](C1CC1)N1Cc2cc(-c3ccn4nc(N)c(C(=O)NC5CC5)c4n3)cc(C(F)(F)F)c2C1=O"
Solution: 5.80

Exercise: Need pIC50, item "C[C@@H](C1CC1)N1Cc2cc(-c3ccn4nc(N)c(C(=O)N[C@H]5CC[C@@](C)(O)CC5)c4n3)cc(OC(F)(F)F)c2C1=O"
Solution: 5.58

Exercise: Need pIC50, item "Cc1cc(-c2ccn3nc(N)c(C(=O)N[C@@H]4CC[C@@H](O)C4)c3n2)cc2c1C(=O)N([C@@H](C)C1CC1)C2"
Solution: 6.85

Exercise: Need pIC50, item "C[C@@H](C1CC1)N1Cc2cc(-c3ccn4nc(N)c(C(=O)N[C@@H](CO)C5CC5)c4n3)cc(OC(F)F)c2C1=O"
Solution: 5.72
